# assay: Pentamidine concentrations in lavage fluid and plasma, HPLC (Example 1)
# Format: in vivo, human
# test_parameters: human, bronchoalveolar lavage fluid, inhaled or intranasal, inhalation; patient 4, day 69 following completion of therapy; read-out: mean concentration in repeat lavage
quantity: concentration at 1656 h
Give your result as the value with the unit written after it.

Reported concentration at 1656 h for `N=C(N)c1ccc(OCCCCCOc2ccc(C(=N)N)cc2)cc1` was 5.61 ng/mL

====

# assay: Pentamidine concentrations in lavage fluid and plasma, HPLC (Example 1)
# Assay type: in vivo, human
# test_parameters: human, bronchoalveolar lavage fluid, inhaled or intranasal, inhalation; patient 4, day 12; read-out: mean concentration in repeat lavage
quantity: concentration at 288 h
Give your result as the value with the unit written after it.

Reported concentration at 288 h for N=C(N)c1ccc(OCCCCCOc2ccc(C(=N)N)cc2)cc1 [pentamidine, p,p'-(pentamethylenedioxy)dibenzamidine] was 178 ng/mL

====

# assay: Pentamidine concentrations in lavage fluid and plasma, HPLC (Example 1)
# Format: in vivo, human
# test_parameters: human, bronchoalveolar lavage fluid, inhaled or intranasal, inhalation; patient 14, day 47; read-out: mean concentration in repeat lavage
quantity: concentration at 1128 h (ng/mL)
Write the value in ng/mL as a bare number.

Reported concentration at 1128 h for `N=C(N)c1ccc(OCCCCCOc2ccc(C(=N)N)cc2)cc1` was 3

====

# assay: Delivery efficiency, nebulizer retention and lung half-life of aerosolized pentamidine
# Parameters: species or system human
# test_parameters: human, lung, inhaled or intranasal; read-out: halflife in the lungs
quantity: half-life

Reported half-life for `N=C(N)c1ccc(OCCCCCOc2ccc(C(=N)N)cc2)cc1` was 21 to 42 days
